growth inhibition overview
# ASSAY OVERVIEW: NCI Yeast Anticancer Drug Screen. Data for the sgs1 mgt1 strain (AID 161);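 further: 0% = growth of cultures given vehicle only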
# ASSAY CONDITIONS: S. cerevisiae sgs1 mgt1 strain, at 5.0 µM (retest, dose inferred, filed as 0.5), active compounds read high
# Procedure: Growth inhibition of yeast strains with defined genetic alterations is measured as a screen for potential anti-cancer activity. Selected strains with alterations in DNA damage repair or cell cycle control were exposed to compounds and growth inhibition was measured relative to vehicle treated controls. The strain used in this assay is sgs1 mgt1
Compounds without any hit were thinned out: in the full panel of roughly 79,000, 15% have a hit.
Write down the numeric answer in % and omit the unit.

Below, each entry is followed by its recorded growth inhibition result.
Cc1ccc2c(n1)C(=O)C=CC2=O    22
O=C1C(=O)c2ccc(Br)cc2C(O)=C1C(c1ccccc1)c1ccccc1    4

Proceed to the following item.
Prompt: Query (compound): O=C(Nc1ncnc2c1ncn2C1CC(O)C(CO)O1)c1ccccc1 (stereo not drawn) ; field requested: growth inhibition
Response: -1
